Source of measurements: ChEMBL document CHEMBL1158219

Recorded measurements of CC50, one per entry
- System: C6
- measurementDescription: Cytotoxicity against rat C6 cells after 3 days treated 4 hrs before db-cAMP challenge by MTT assay
- Type: functional
- measurementContext: read-out: LC50 (the source's name)
The answer is to be given in nM; state only the numeric part.

CC(=O)O[C@H]1C(=O)[C@@]2(C)[C@H]([C@H](OC(=O)c3ccccc3)[C@]3(O)C[C@H](OC(=O)[C@H](O)[C@@H](NC(=O)c4ccccc4)c4ccccc4)C(C)=C1C3(C)C)[C@]1(OC(C)=O)CO[C@@H]1C[C@@H]2O
23

# context switch: different molecule, same CC50
So for CC[C@]1(O)C[C@H]2CN(CCc3c([nH]c4ccccc34)[C@@](C(=O)OC)(c3cc4c(cc3OC)N(C=O)[C@H]3[C@@](O)(C(=O)OC)[C@H](OC(C)=O)[C@]5(CC)C=CCN6CC[C@]43[C@@H]65)C2)C1 , the logged CC50 turned out to be 320

---

- Tested on: C6
- measurementDescription: Inhibition of tubulin polymerization in rat C6 cells at 50 ug/mL to 2.5 mg/mL after 4 hrs
- Assay type: cell-based
Calls of active or inactive are those of the source. The rule behind the calls is not given here.
readout: Activity

Take a look at these entries with their results.
N[C@@H](Cc1ccc(N(CCCl)CCCl)cc1)C(=O)O
inactive
CO[C@@]12[C@H](COC(N)=O)C3=C(C(=O)C(C)=C(N)C3=O)N1C[C@@H]1N[C@@H]12
inactive
Clc1ccc(C(c2ccccc2Cl)C(Cl)Cl)cc1 (stereo not given)
inactive
O=C1c2c(O)ccc(O)c2C(=O)c2c(NCCNCCO)ccc(NCCNCCO)c21
inactive

Field Activity (system: C6) for entry CO[C@@H]1[C@@H](OC(N)=O)[C@@H](O)[C@H](Oc2ccc3c(O)c(NC(=O)c4ccc(O)c(CC=C(C)C)c4)c(=O)oc3c2C)OC1(C)C = inactive
